# ASSAY_SYSTEM: T1, membrane-bound rhesus MSLN (Rhesus (Macaca mulatta))
# T1 construct: The expressed construct is not described further; also called Rh MSLN-CHOK1; RhMSLN
# T1 chain: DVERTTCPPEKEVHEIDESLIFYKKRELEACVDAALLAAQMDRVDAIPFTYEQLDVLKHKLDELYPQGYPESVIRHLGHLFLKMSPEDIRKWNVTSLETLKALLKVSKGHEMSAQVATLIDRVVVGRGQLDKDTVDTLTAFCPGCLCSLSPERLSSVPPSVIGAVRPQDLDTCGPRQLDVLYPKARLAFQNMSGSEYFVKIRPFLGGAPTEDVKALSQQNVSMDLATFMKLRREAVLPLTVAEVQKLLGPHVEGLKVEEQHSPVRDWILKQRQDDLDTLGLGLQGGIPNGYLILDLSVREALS
# METHOD_SUMMARY: cell ELISA, CHOK1 cells expressing rhesus MSLN
EC50 values, listed per item
Report the value in µg/mL with no unit label.

binder="SV017.13B12.1E1 (antibody, V domains shown, also called antibody from hybridoma clone SV017.13B12.1E1) VH: EVQLVESGGGLVQPGGSLRLSCAATGFTFSSYWMHWVRQGPGKGLVWVSRINSDGTSTVYADSVKGRFTISRDNAKNTLHLQMNSLRAEDTAVYYCARGRGIMTYWGQGTLVTVSS VL: DIQMTQSPSSLSASVGDRVTITCRASQDIGSWLTWYQRKPEKAPKSLIYAASSLQSGVPSRFSGSGSGTDFTLTISSLQPEDFATYYCQQYKSYPLTFGQGAKLEIK" unit_symbol=µg/mL observed_value=0.23
binder="SV017.47D7.1C2 (antibody, V domains shown, also called antibody from hybridoma clone SV017.47D7.1C2) VH: EVQLVESGGGLVQPGGSLRLSCAATGFTFSSYWMHWVRQGPGKGLVWVSRINSDGTSTVYADSVKGRFTISRDNAKNTLYLQMNSLRAEDTAVYYCARGRGIMTYWGQGTLVTVSS VL: DIQMTQSPSSLSASVGDRVTITCRASQDIGSWLTWYQRKPEKAPKSLIYAASSLQSGVPSRFSGSGSGTDFTLTISSLQPEDFATYYCQQYKSYPLTFGQGAKLEIK" unit_symbol=µg/mL observed_value=0.26

Please look at the following binder next.
Could you share which EC50 value was measured for SV017.50G3.1B1 (antibody, V domains shown, also called antibody from hybridoma clone SV017.50G3.1B1) VH: EVQLVESGGGLVQPGESLRLSCAATGFTFSSYWMHWVRQGPGKGLVWVSRINSDGTSTVYADSVKGRFTISRDNAKNTLFLQMNSLRAEDTAVYYCARGRGIMTYWGQGTLVTVSS VL: DIQMTQSPSSLSASVGDRVTITCRASQDIGSWLTWYQRKPEKAPKSLIYAASSLQSGVPSRFSGSGSGTDFTLTISSLQPEDFATYYCQQYKSYPLTFGQGAKLEIK ? 0.33
